Values compiled from patent US20250195484A1.

Tgt: P300 (Homo sapiens)
Construct: endogenous in cells; host or cells: 22Rv1
Sequence (Q09472 whole entry): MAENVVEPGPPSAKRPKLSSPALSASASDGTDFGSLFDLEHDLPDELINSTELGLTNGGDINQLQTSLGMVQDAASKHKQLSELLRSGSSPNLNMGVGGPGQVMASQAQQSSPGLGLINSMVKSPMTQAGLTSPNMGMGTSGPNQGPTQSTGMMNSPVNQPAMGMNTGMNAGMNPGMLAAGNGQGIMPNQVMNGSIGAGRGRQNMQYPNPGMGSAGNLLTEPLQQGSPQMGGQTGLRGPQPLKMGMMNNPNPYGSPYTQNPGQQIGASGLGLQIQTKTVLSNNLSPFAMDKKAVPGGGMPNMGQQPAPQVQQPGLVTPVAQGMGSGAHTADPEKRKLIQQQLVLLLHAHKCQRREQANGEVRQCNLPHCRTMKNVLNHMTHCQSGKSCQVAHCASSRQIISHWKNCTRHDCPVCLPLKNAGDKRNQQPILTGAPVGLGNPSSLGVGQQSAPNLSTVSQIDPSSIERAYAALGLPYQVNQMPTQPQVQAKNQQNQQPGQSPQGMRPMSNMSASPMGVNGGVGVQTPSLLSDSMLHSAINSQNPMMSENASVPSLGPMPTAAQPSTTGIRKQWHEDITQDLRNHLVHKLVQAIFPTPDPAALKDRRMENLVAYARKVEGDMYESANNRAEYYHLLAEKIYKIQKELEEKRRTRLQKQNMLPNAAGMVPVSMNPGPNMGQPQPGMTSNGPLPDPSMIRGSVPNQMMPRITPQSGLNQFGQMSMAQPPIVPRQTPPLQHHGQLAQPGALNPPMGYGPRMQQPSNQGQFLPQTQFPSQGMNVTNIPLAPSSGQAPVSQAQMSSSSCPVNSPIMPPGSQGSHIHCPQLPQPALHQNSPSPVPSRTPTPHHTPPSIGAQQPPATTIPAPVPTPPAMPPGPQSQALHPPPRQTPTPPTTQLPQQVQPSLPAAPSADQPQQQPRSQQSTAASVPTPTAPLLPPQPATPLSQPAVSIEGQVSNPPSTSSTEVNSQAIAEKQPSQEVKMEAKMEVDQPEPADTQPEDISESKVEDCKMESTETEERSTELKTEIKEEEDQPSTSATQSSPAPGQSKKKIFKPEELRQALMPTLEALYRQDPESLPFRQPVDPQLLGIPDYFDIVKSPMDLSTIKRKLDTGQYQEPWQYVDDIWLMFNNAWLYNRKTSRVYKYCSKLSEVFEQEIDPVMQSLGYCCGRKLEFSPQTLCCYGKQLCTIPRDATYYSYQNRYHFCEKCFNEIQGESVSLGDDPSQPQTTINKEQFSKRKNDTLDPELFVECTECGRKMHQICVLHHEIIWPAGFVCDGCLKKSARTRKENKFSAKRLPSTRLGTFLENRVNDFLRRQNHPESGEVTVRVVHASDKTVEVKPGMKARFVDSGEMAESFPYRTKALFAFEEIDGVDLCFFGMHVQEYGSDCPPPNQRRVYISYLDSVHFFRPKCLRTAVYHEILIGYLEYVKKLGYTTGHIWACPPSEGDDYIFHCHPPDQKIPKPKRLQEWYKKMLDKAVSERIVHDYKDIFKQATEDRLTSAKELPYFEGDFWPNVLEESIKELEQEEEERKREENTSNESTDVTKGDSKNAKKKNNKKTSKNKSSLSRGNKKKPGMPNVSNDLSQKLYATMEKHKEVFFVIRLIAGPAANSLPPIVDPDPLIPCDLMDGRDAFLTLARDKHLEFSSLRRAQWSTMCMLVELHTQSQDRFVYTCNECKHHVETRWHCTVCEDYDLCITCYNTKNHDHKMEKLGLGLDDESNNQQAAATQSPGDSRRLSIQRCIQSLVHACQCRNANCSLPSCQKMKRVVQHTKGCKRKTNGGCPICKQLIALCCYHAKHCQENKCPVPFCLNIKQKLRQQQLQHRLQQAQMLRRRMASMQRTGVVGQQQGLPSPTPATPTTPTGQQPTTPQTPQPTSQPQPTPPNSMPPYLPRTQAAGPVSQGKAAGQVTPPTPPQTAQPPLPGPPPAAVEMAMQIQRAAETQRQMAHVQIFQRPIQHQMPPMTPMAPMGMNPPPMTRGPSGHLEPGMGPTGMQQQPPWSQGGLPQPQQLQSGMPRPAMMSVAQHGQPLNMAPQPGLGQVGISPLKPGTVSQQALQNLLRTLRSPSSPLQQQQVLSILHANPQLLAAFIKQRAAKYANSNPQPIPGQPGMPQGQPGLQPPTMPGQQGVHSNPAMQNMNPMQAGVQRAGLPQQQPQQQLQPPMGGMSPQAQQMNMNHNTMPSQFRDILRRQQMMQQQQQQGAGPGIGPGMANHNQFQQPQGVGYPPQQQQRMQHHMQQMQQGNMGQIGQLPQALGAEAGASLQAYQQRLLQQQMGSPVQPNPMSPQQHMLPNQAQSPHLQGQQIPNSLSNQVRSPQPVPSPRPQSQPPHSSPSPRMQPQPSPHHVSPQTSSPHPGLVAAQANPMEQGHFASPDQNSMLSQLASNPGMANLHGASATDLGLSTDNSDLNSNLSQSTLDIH
Run description: P300 degradation, western blot, 22Rv1
Type: cell-based
Condition: 22Rv1, 5 h

[
  {
    "Smiles code": "CC(=O)N1CCc2c(c(N3CCCc4cc(-c5cnn(C)c5)c(C(F)F)cc43)nn2[C@H]2CC[C@H](C(=O)N3CCC4(CC3)COc3c4ccc4c3CN([C@H]3CCC(=O)NC3=O)C4=O)CC2)C1",
    "P300 Degradation DCmax": "A (A (≥90%))"
  },
  {
    "Smiles code": "CC(=O)N1CCc2c(c(N3CCCc4cc(-c5cnn(C)c5)c(C(F)F)cc43)nn2C2CCN(CC(=O)N3CCC4(CC3)COc3c4ccc4c3CN([C@H]3CCC(=O)NC3=O)C4=O)CC2)C1",
    "P300 Degradation DCmax": "A (A (≥90%))"
  },
  {
    "Smiles code": "CC(=O)N1CCc2c(c(N3CCCc4cc(-c5cnn(C)c5)c(C(F)F)cc43)nn2[C@H]2CC[C@@H](C(=O)N3CCC4(CC3)COc3c4ccc4c3CN([C@H]3CCC(=O)NC3=O)C4=O)CC2)C1",
    "P300 Degradation DCmax": "A (A (≥90%))"
  }
]

---

Tgt: STAT3 (Homo sapiens, UniProt P40763)
Construct: host or cells: HeLa (STAT3-HiBiT CRISPR knock-in clone)
Sequence (P40763 whole entry): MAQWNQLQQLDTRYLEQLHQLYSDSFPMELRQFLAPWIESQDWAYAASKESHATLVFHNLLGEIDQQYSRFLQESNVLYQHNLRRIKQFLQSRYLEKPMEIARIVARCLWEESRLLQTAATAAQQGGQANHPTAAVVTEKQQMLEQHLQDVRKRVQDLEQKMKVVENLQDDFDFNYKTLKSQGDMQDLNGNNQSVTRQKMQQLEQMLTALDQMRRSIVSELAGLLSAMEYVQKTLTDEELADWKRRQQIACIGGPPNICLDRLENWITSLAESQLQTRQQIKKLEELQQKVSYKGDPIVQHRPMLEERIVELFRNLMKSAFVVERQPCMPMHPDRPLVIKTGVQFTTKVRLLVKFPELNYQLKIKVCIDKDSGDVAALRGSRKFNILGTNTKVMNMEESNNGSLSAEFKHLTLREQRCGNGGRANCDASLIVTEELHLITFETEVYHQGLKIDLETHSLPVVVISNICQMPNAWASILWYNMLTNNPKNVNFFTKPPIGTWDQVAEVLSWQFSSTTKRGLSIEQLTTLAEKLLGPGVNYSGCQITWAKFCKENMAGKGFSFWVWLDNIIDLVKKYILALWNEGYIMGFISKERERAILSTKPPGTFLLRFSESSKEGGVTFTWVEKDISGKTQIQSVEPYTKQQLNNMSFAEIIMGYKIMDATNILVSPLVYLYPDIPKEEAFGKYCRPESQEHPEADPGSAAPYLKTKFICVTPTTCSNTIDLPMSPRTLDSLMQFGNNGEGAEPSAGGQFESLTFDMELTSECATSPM
Run description: STAT3 degradation HiBiT assay (STAT3-HIBIT KI HeLa)
Format: cell-based
Condition: STAT3-HIBIT KI HeLa cells, 24 hours
Catalogue of DC50 values

Worked examples follow.
[
  {
    "Molecule": "CS(=O)(=O)c1cccc(OC[C@H](CCC(N)=O)NC(=O)[C@@H]2CC[C@@H]3CCN(C(=O)CCCCN4CCC5(CC4)COc4c5ccc5c4CN([C@H]4CCC(=O)NC4=O)C5=O)C[C@H](NC(=O)c4cc5cc(C(F)(F)P(=O)(O)O)ccc5s4)C(=O)N32)c1 [STD 71]",
    "Tgt": "STAT3 (Homo sapiens, UniProt P40763)",
    "DC50": "0.1 to 1 µM"
  },
  {
    "Molecule": "NC(=O)CC[C@H](NC(=O)[C@@H]1CC[C@@H]2CCN(C(=O)CCCCC(=O)N3CCC4(CC3)COc3c4ccc4c3CN([C@H]3CCC(=O)NC3=O)C4=O)C[C@H](NC(=O)c3cc4cc(C(F)(F)P(=O)(O)O)ccc4s3)C(=O)N21)C(=O)NC(c1ccccc1)c1ccccc1 [STD 22]",
    "Tgt": "STAT3 (Homo sapiens, UniProt P40763)",
    "DC50": "1 to 10 µM"
  },
  {
    "Molecule": "CS(=O)(=O)c1cccc(OC[C@H](CCC(N)=O)NC(=O)[C@@H]2CC[C@@H]3CCN(C(=O)CCCCN4CCC5(CC4)COc4c5ccc5c4CN([C@H]4CCC(=O)NC4=O)C5=O)C[C@H](NC(=O)c4cc5cc(C(=O)P(=O)(O)O)ccc5[nH]4)C(=O)N32)c1 [STD 84]",
    "Tgt": "STAT3 (Homo sapiens, UniProt P40763)",
    "DC50": "0.1 to 1 µM"
  }
]

Query molecule follows.
Please give the measured DC50 for this molecule: NC(=O)CC[C@H](NC(=O)[C@@H]1CC[C@@H]2CCN(C(=O)CCCCN3CCC4(CC3)COc3c4ccc4c3CN([C@H]3CCC(=O)NC3=O)C4=O)C[C@H](NC(=O)c3cc4cc(C(F)(F)P(=O)(O)O)ccc4s3)C(=O)N21)C(=O)NCc1cccc(Cl)c1 [STD 70]
0.1 to 1 µM
